Examples of compounds with documented EC50 follow.
systemName: F508delCFTR (Homo sapiens, UniProt P13569, DEL508-508)
Construct: expressed in transfected cells; host or cells: CFBE41o- human lung derived epithelial cells (CFBE41o-F508delCFTR-HRP), doxycycline-inducible
Sequence (P13569 with tags, fused parts or gaps DEL508-508): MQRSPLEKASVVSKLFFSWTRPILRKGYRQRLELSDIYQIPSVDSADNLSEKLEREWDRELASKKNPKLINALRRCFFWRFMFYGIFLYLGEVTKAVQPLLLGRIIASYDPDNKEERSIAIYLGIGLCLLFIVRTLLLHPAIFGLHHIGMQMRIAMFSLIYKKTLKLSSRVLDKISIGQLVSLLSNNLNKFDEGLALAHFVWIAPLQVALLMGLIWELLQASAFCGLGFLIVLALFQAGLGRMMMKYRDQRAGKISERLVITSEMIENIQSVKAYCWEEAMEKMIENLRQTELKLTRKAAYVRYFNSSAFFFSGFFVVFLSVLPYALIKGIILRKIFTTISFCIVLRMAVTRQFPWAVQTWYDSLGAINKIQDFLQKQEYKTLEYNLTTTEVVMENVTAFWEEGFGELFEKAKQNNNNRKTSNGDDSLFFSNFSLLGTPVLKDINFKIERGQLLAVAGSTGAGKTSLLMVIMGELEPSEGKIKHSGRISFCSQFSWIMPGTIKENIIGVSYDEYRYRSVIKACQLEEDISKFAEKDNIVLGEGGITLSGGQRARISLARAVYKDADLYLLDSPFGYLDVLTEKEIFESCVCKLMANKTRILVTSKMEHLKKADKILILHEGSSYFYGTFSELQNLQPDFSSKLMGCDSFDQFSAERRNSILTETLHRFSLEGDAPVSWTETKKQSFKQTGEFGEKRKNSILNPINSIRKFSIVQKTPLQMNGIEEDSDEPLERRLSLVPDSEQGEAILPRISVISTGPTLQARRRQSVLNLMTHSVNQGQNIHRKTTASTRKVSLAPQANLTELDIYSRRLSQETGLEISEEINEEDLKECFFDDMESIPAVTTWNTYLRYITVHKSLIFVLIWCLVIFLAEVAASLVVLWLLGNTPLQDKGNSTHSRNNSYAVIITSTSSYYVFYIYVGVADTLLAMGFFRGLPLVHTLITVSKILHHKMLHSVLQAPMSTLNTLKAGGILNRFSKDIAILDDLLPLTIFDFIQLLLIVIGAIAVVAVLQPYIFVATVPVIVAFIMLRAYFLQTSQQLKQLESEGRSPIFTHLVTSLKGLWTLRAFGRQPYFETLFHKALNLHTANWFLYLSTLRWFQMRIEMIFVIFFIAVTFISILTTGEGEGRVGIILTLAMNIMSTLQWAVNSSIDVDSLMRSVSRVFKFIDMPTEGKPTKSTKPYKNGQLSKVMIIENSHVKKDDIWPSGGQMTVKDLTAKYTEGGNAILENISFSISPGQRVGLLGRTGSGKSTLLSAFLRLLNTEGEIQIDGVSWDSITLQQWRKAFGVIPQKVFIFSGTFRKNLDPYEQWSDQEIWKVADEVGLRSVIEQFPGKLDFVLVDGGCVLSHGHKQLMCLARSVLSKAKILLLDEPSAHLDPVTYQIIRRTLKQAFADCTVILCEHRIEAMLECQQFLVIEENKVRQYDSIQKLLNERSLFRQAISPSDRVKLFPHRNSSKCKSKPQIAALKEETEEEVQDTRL
procedureSummary: Cell Surface Expression-Horse Radish Peroxidase (CSE-HRP) Assay
Type: cell-based
testConditions: test compound alone, without co-corrector; read-out: EC50 (without co-corrector)
parameterMeasured: EC50

COc1ccc(C2CCC2)cc1C1(C(=O)NS(=O)(=O)c2cccc3ccc(C)nc23)CC1 | < 3 µM
CCc1ccc(O[C@H](C)COC)c(C2(C(=O)NS(=O)(=O)c3cccc4ncccc34)CC2)c1 | < 3 µM
COc1ccc(C2(C(=O)NS(=O)(=O)c3cccc4ccccc34)CCC2)cc1OC | > 10 µM
COc1ccc(C)c(OC)c1C1(C(=O)NS(=O)(=O)c2cccc3ncccc23)CC1 | < 3 µM
O=C(NS(=O)(=O)c1ccccc1)C1(c2ccccc2Cl)CC1 | 3 to 10 µM
COc1ccc(S(=O)(=O)NC(=O)C2(c3ccc(Cl)cc3Cl)CC2)cc1 | > 10 µM
COc1ncc(C(F)(F)F)cc1C1(C(=O)NS(=O)(=O)c2cccc3ccccc23)CC1 | < 3 µM
COc1ccc(C2CCC2)cc1C1(C(=O)NS(=O)(=O)c2cccc3ccn(C)c23)CC1 | < 3 µM
CCOc1cccc(OC)c1C1(C(=O)NS(=O)(=O)c2cccc3ncccc23)CC1 | < 3 µM
COc1ccc2c(S(=O)(=O)NC(=O)C3(c4cc(C5CCC5)cnc4OCC(C)C)CC3)cccc2n1 | < 3 µM
O=C(NS(=O)(=O)c1ccccc1)C1(c2ccc(Cl)cc2)CCC1 | > 10 µM
CCOc1ccc(C(C)(C)OCC)cc1C1(C(=O)NS(=O)(=O)c2cccc3ncccc23)CC1 | < 3 µM
COc1cc(C2CCC2)cc(OC)c1C1(C(=O)NS(=O)(=O)c2cccc3cnn(C)c23)CC1 | < 3 µM
COc1ccc(C)c(OC)c1C1(C(=O)NS(=O)(=O)c2cccc3[nH]ccc23)CC1 | < 3 µM
COc1ccc(C(OC)C(F)(F)F)cc1C1(C(=O)NS(=O)(=O)c2cccc3ncccc23)CC1 (centres unmarked) | 3 to 10 µM
COc1ccccc1C1(C(=O)NS(=O)(=O)c2ccccc2C)CC1 | 3 to 10 µM
COc1cccc(C2(C(=O)NS(=O)(=O)c3ccccc3C)CCOCC2)c1 | > 10 µM
